# PROTOCOL: GSH arylation rate constants (NMR; UV-vis for fast warheads)
# Type: physicochemical
# REPORTED CONDITIONS: pH 7.0; ratio to rate constant of 4q; acceleration (+) or deceleration (-)
Quick reference: k change (vs ref) of the listed items.
Enter your answer as a number in fold; do not include the unit.

The cases that follow already have their k change (vs ref) on record.
{"columns": ["COMPOUND", "METRIC NAME", "OBSERVED"],
 "data": [
  ["Cc1cc(C)c(C#N)c(S(C)(=O)=O)n1 [compound 11, reference compound]", "k change (vs ref)", -11],
  ["Cc1ccnc(S(C)(=O)=O)n1", "k change (vs ref)", -6]
]}

Next compound, please.
Prompt: Consider the compound CS(=O)(=O)c1ncc(-c2ccccc2)cn1 . State its measured k change (vs ref).
Completion: -2

Values from paper PMC10515483
